The reported measurements were obtained from ChEMBL document CHEMBL1201862.

study-target: SUMO-activating enzyme (Homo sapiens)
Sequence (Q9UBE0 whole entry): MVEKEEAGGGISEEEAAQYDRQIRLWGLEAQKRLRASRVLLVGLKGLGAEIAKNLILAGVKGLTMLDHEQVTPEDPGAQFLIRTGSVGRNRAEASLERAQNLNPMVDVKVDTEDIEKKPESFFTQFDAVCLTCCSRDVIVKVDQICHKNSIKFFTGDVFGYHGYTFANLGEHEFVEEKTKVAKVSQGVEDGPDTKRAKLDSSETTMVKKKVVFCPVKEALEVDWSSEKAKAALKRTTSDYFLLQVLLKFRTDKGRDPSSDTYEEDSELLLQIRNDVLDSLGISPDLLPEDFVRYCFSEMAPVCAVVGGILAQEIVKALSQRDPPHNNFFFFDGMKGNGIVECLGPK
Sequence (Q9UBT2 whole entry): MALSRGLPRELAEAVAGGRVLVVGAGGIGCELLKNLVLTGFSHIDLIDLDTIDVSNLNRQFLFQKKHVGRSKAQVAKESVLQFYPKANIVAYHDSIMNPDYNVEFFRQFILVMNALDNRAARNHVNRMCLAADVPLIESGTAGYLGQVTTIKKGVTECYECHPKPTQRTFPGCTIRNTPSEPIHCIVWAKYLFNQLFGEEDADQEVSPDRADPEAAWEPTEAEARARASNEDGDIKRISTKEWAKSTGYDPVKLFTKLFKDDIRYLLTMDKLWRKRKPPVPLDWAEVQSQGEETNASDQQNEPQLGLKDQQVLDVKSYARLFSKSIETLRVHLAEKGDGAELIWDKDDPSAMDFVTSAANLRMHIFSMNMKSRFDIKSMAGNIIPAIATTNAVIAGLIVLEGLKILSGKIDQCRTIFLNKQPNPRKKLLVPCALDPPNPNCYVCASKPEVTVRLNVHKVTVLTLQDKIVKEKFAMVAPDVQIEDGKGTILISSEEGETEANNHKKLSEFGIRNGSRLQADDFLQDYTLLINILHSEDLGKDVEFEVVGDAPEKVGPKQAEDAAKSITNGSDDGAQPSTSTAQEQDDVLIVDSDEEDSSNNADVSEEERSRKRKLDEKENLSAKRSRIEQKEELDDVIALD
assay-name: blockers of SAE1/SAE2–UBC9 SUMO transfer – biochemical, HTRF, uHTS, primary screen (AID 2006)
Type: protein-complex assay
Active and inactive are the calls of the source.
IC50 by entry:

Completed entries (count: 3):
N#Cc1c2nc3ccccc3nc2n2cc(NC(=O)c3ccc(F)cc3)ccc12 ... 2.96 µM (active)
COc1ccccc1NC(=O)Cn1c(O)c(N=NC(=O)c2ccccc2O)c2ccccc21 ... 23.8 µM (active)
CCC(C)n1c(NC(=O)c2ccccc2)c(C#N)c2nc3ccccc3nc21 (centres undefined) ... 8.4 µM (active)

# input molecule: CC1=C(C(=O)Nc2ccccc2)C(c2ccc(C)cc2)NC(Nc2nc3ccccc3o2)=N1 (centres undefined) ; wanted: its IC50
4.07 µM (active)

* * *

study-target: Glyceraldehyde-3-phosphate dehydrogenase (Homo sapiens)
Sequence (P04406 whole entry): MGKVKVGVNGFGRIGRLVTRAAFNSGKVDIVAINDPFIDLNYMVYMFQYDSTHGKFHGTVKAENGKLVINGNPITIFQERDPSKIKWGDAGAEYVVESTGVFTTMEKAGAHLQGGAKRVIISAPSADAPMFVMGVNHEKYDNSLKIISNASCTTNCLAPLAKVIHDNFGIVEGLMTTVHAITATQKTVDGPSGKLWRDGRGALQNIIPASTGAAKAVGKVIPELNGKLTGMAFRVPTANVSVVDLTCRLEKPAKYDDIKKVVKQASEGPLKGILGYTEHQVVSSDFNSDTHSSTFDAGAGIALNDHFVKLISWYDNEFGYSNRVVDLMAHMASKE
property-label: IC50

COc1ccc(Br)cc1S(=O)(=O)Nc1ccon1 ... > 100 µM (not active)

# get_value(readout= IC50, system= Glyceraldehyde-3-phosphate dehydrogenase (Homo sapiens)) for COc1ccc(/C=C2\SC(=S)N(C(CC(=O)O)C(=O)O)C2=O)cc1 (stereo unspecified)
> 100 µM (not active)

# get_value(readout= IC50, system= Glyceraldehyde-3-phosphate dehydrogenase (Homo sapiens)) for Cc1ccc(N2C(=O)C(Cl)=C(N3CCN(c4ncccn4)CC3)C2=O)cc1
> 50 µM (inconclusive)

# get_value(readout= IC50, system= Glyceraldehyde-3-phosphate dehydrogenase (Homo sapiens)) for COC(=O)c1ccc(OC)c(S(=O)(=O)Nc2cnc3ccccc3c2)c1
> 10 µM (inconclusive)

# get_value(readout= IC50, system= Glyceraldehyde-3-phosphate dehydrogenase (Homo sapiens)) for O=C(O)CS(=O)(=O)c1cccc(C(=O)O)c1
> 100 µM (not active)

# get_value(readout= IC50, system= Glyceraldehyde-3-phosphate dehydrogenase (Homo sapiens)) for C[C@@H]1CN(C2=C(Cl)C(=O)N(c3ccnc(Cl)c3)C2=O)CCN1
> 50 µM (inconclusive)

* * *

# collection of AC50 values tested on Cytochrome P450 3A4 (Homo sapiens, UniProt P08684);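 also: CYP3A4 tested as one member of a cytochrome P450 panel screen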
# Sequence (P08684 whole entry): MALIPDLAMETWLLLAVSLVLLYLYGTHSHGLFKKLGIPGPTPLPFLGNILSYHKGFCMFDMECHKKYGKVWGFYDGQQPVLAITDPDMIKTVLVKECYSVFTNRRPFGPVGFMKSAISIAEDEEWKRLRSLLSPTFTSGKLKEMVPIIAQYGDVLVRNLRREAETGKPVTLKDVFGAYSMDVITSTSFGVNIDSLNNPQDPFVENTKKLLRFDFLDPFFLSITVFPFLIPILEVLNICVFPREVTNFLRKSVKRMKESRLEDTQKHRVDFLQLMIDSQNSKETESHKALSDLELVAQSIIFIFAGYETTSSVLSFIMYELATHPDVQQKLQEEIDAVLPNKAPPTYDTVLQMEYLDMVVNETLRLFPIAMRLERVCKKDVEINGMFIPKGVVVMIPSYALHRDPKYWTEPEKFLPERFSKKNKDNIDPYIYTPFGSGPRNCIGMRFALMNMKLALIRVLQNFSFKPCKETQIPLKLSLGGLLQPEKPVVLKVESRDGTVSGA

Completed entries (count: 5):
CC(C)(C)n1nc2c(c1NC(=O)c1ccc(S(=O)(=O)N3CCCCC3)cc1)C[S+]([O-])C2 (stereo not given) ... 14.1 µM (inconclusive)
CCCOC(=O)c1c(NC(=O)/C=C/c2cnn(C)c2C)sc(C(=O)OCC)c1C ... 15.8 µM (inconclusive)
CC(=O)NCCNc1ncnc2ccc(-c3c(C)noc3C)cc12 ... 25.1 µM (inconclusive)
Cc1ccc(OCC(=O)NNC(=O)c2cccnc2)cc1 ... 25.1 µM (inconclusive)
CC1Cc2ccccc2N1C(=O)CSc1nnnn1C(C)C (stereo not given) ... 15.8 µM (inconclusive)

# input molecule: COc1ccccc1CNc1cc(-c2c(C)noc2C)ncn1 ; wanted: its AC50
39.8 µM (inconclusive)

# input molecule: COc1ccc(N2CCN(c3nc(Nc4ccc(F)cc4)nc(OC)n3)CC2)cc1 ; wanted: its AC50
3.16 µM (inconclusive)

* * *

IC50 by entry:
study-target: Induced myeloid leukemia cell differentiation protein Mcl-1 (Homo sapiens, UniProt Q07820)
Sequence (Q07820 whole entry): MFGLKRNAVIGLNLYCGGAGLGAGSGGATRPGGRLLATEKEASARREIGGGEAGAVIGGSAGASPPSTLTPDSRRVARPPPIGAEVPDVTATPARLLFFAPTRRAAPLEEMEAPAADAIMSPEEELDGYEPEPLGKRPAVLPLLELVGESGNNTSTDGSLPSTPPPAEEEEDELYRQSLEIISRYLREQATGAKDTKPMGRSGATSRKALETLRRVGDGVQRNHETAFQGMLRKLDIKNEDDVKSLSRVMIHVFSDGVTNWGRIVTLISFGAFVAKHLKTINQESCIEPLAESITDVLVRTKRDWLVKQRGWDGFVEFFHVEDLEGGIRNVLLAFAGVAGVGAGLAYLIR
Format: functional
Activity calls are given as the source filed them.

Completed entries (count: 4):
O=C1NC(=S)NC(=O)C1=Cc1ccc2c(c1)CCN2CCCCl ... > 54 µM (active)
CC(=O)Nc1ccc(C2=NN=C(Nc3ccc(S(=O)(=O)N4CCOCC4)cc3)SC2)cc1 ... 1.61 µM (active)
Cc1ccc(C(=O)NNc2c3ccccc3nc3ccccc23)cc1 ... 5.38 µM (active)
N#Cc1c2nc3ccccc3nc2n2cc(NC(=O)c3ccc(F)cc3)ccc12 ... 1.57 µM (active)

# input compound: CCOc1ccccc1Nc1nc(-c2sc(NC(=O)c3ccc([N+](=O)[O-])cc3)nc2C)cs1 ; wanted: its IC50
13.4 µM (active)

* * *

study-target: Cytochrome P450 1A2 (Homo sapiens, UniProt P05177)
Sequence (P05177 whole entry): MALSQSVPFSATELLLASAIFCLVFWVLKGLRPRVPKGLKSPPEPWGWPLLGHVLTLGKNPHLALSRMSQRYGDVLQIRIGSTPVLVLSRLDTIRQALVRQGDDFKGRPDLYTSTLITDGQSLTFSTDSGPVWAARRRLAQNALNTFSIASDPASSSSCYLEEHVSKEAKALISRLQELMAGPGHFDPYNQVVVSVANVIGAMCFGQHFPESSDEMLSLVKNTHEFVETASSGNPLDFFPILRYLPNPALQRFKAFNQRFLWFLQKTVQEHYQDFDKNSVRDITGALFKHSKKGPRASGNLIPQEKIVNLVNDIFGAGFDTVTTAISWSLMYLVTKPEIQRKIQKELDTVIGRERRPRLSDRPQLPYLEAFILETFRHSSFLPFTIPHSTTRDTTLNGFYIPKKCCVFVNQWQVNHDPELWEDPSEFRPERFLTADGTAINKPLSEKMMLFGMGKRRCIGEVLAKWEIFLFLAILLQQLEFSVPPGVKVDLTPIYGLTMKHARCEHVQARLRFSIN
property-label: AC50

Completed entries (count: 5):
Cc1noc(C)c1C(=O)N1CCC[C@@]2(CCN(C(=O)Nc3ccccc3)C2)C1 ... 39.8 µM (inconclusive)
COC(=O)N1CCC[C@@]2(CCN(C(=O)Nc3cccc(F)c3)C2)C1 ... 15.8 µM (inconclusive)
C[C@](N)(C(=O)O)c1ccc(-c2nnn[nH]2)cc1 ... 39.8 µM (inconclusive)
COc1ccc(-n2c(=O)cnc3cnc(OC)nc32)cc1 ... 20 µM (inconclusive)
CCc1nnc(SCc2ccc(OC(C)C)cc2)n1N ... 15.8 µM (inconclusive)

Let us move to another entry and its AC50.
# get_value(readout= AC50, system= Cytochrome P450 1A2 (Homo sapiens, UniProt P05177)) for O=C(NC(=S)Nc1nc(-c2ccc(Br)cc2)cs1)c1cccnc1;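 also: PubChem cytochrome P450 panel assay, CYP1A2 panel member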
3.55 µM (inconclusive)

* * *

IC50 by entry:
study-target: UniProt P00734
assay-name: Thrombin 1536 HTS Dose Response Confirmation. [Related pubchem assays: 1046 (Thrombin 1536 HTS; hits were confirmed in this assay)]
Assay type: functional
Active and inactive are the calls of the source.

O=C1NCC(COCc2ccco2)O1 (centres undefined) ... > 50 µM (not active)

# input molecule: Nc1nc(-c2cccnc2)nn1C(=O)Cc1ccccc1 ; wanted: its IC50
0.0753 µM (active)

# input molecule: O=C(c1ccco1)n1nc(-c2ccco2)nc1SCc1ccccc1 ; wanted: its IC50
0.201 µM (active)

# input molecule: CC(O)C(=O)N/N=C/c1cccc2ccccc12 (centres undefined) ; wanted: its IC50
48.8 µM (active)

* * *

EC50 by entry:
assay-name: Trypanosoma cruzi growth suppression in host cells – NIH3T3 host cells, beta-gal luminescence, confirmation (AID 2044);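 also: intracellular parasites grown in NIH/3T3 mouse fibroblasts as host cells; luminescent beta-galactosidase reporter signal from transgenic T. cruzi replicating inside host cells; inhibitors lower the luminescence signal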
Assay type: functional, cell-based
Activity calls are given as the source filed them.

Completed entries (count: 3):
N#C/C(=C/c1ccc(N2CCCCCC2)o1)c1ccc(Cl)cc1 ... 1.81 µM (active)
O=C(Nc1nc2ccccc2n1Cc1ccccc1)c1ccc(COc2ccccc2[N+](=O)[O-])o1 ... 1.25 µM (active)
O=c1[nH]sc2cc(F)ccc12 ... 0.202 µM (active)

# input molecule: CNC(=S)N/N=C/c1ccc(N2CCOCC2)s1 ; wanted: its EC50
> 60 µM (not active)

# input molecule: COCCn1c(C2CCCCC2)nc2sc3ccccc3c(=O)c2c1=O ; wanted: its EC50
2.28 µM (active)

# input molecule: COc1ccc(C2CC(c3ccccc3)=NN2C(=O)COC(=O)c2nc3nc(C)cc(C)n3n2)cc1 (configuration not stated) ; wanted: its EC50
3.19 µM (active)

# input molecule: Cc1ccccc1OCCCCCn1ccnc1 ; wanted: its EC50
0.54 µM (active)

* * *

EC50 by entry:
study-target: Protein RecA (Mycobacterium tuberculosis, UniProt P9WHJ3)
assay-name: Fluorescence Cell-Free Homogeneous Dose Retest to Identify Inhibitors of RecA-Intein Splicing Activity. [Related pubchem assays (depositor defined):AID2097, AID2223, AID489010, AID492950]
Type: functional
The source made the active and inactive calls.

CC1=NNC(=O)C1Oc1ccccc1 (stereo unspecified) ... 0.57 µM (active)
O=C(O)COc1ccc(/C=C2/SC(=S)N(Cc3ccccc3)C2=O)cc1 ... 8.33 µM (active)
Cc1ccc(C2CC(c3cccs3)=NN2C(=O)CCl)cc1 (stereo unspecified) ... 0.943 µM (active)

# input molecule: CC(=O)C(Sc1ncnc2c1nnn2-c1ccc(F)cc1)C(=O)N(C)C (stereo unspecified) ; wanted: its EC50
15.7 µM (active)

# input molecule: Cc1ccccc1C(CC(=O)c1cccs1)C(C#N)C#N (stereo unspecified) ; wanted: its EC50
1.17 µM (active)

# input molecule: Cn1c(=O)c([N+](=O)[O-])c(-n2ccnc2)c2ccccc21 ; wanted: its EC50
6.43 µM (active)

* * *

IC50 by entry:
study-target: Mannose-6-phosphate isomerase (Homo sapiens, UniProt P34949)
Sequence (P34949 whole entry): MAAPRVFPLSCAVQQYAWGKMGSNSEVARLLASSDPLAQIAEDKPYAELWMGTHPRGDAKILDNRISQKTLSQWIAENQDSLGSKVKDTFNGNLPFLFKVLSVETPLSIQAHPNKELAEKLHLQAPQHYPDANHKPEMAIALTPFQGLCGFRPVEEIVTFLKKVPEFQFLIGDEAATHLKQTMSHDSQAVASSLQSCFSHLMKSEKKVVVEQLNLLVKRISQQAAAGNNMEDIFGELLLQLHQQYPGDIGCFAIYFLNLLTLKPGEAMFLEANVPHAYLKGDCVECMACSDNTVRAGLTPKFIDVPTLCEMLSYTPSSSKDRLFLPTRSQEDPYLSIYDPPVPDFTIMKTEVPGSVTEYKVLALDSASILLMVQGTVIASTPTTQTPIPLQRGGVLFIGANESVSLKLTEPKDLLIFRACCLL
assay-name: MPI inhibition at elevated mannose 6-phosphate – biochemical, fluorescence intensity, high mannose 6-phosphate, primary screen (AID 1220)
Calls of active or inactive are those of the source.

Completed entries (count: 3):
CCN1C(=O)c2cccc3cccc1c23 ... 33.9 µM (active)
CC/N=c1\scc(C)n1/N=C/c1ccc(O)c(O)c1O ... 12 µM (active)
CN(C)c1ccc(C(=S)N2CCOCC2)cc1Br ... > 50 µM (not active)

Let us move to another entry and its IC50.
# input molecule: CCC(C)n1c(NC(=O)c2ccccc2)c(C#N)c2nc3ccccc3nc21 (centres undefined) ; wanted: its IC50
> 50 µM (not active)

* * *

study-target: Rac GTPase-activating protein 1 (Homo sapiens, UniProt Q9H0H5)
Sequence (Q9H0H5 whole entry): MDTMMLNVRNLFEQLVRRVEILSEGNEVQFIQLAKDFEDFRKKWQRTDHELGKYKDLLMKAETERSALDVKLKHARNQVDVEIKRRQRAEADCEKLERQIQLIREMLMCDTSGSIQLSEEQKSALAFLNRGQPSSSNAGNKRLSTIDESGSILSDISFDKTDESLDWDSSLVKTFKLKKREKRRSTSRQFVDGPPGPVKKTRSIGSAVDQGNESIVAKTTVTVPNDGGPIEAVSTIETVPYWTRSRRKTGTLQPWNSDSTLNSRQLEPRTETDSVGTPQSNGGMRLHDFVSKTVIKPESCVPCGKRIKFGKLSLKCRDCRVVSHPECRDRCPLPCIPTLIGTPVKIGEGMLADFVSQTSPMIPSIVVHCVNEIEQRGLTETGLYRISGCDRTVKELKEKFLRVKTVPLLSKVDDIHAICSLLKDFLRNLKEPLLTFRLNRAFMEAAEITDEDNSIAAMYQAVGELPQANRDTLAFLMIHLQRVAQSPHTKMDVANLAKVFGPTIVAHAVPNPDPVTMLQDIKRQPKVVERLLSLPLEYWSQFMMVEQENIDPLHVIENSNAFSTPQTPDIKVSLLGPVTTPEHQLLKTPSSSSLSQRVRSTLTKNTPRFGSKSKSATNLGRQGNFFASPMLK
assay-name: blockers of MgcRacGAP-driven Rac1 GTP hydrolysis – biochemical, ADP Hunter fluorescence, primary and confirmatory, confirmation (AID 624330)
Format: functional
Activity calls are given as the source filed them.
property-label: IC50

O=C(O)c1cc(N/N=C/c2c(O)ccc3ccccc23)ccc1Cl ... 35.7 µM (active)
COc1cc(/C=N\N=C2/SC(CC(=O)O)C(=O)N2c2ccc(O)cc2)ccc1O (stereo not drawn) ... 78.1 µM (active)
CCN(CC)S(=O)(=O)c1ccc(C)c(NC(=O)CN2CCN(Cc3ccccc3)CC2)c1 ... 84.8 µM (active)
Nc1ccc2c(c1)Cc1cc(N)c(Cl)cc1-2 ... 8.46 µM (active)
CNC(=S)N/N=C/c1ccc(N2CCOCC2)s1 ... 28.3 µM (active)
COc1cc2c(cc1N)-c1ccc(N)cc1C2=O ... 12.3 µM (active)
CN1C(=O)NC(c2ccc(O)cc2)C2=C1CN(c1ccc(O)cc1)C2=O (stereo not drawn) ... 34.6 µM (active)
COc1cccc2[nH]c(C(=O)NN)c(N)c12 ... 99.4 µM (active)

# input compound: COc1ccc(-n2sc3ccc(F)cc3c2=O)cc1 ; wanted: its IC50
45.2 µM (active)

# input compound: Cn1c(=O)[nH]c(NCCc2ccc(O)cc2)c([N+](=O)[O-])c1=O ; wanted: its IC50
219 µM (active)

# input compound: CCOC(=O)C1=C(O)/C(=C\c2ccc(O)c(OCC)c2)N=C1C ; wanted: its IC50
43.3 µM (active)

# input compound: Cc1cc(C)c(S(=O)(=O)Nc2ccc(O)cc2)c(C)c1 ; wanted: its IC50
69.7 µM (active)

# input compound: Cc1cc(NCCCCCCCNc2cc(C)nc3cc([N+](=O)[O-])ccc23)c2ccc([N+](=O)[O-])cc2n1 ; wanted: its IC50
26.1 µM (active)

# input compound: O=C(O)C1CSC(c2ccco2)N1 (stereo not drawn) ; wanted: its IC50
70.6 µM (active)

# input compound: Cc1sc2ncnc(N/N=C/c3ccc(O)cc3)c2c1C ; wanted: its IC50
37.6 µM (active)

# input compound: CN(c1ccccc1)S(=O)(=O)c1cccc(C(=O)NCCc2ccc(O)c(O)c2)c1 ; wanted: its IC50
69.2 µM (active)

# input compound: CC/C(=N\O)c1ccc(O)c(OC)c1 ; wanted: its IC50
45.2 µM (active)

# input compound: C=CCNCC(O)COc1ccc(C(C)=O)cc1OC (stereo not drawn) ; wanted: its IC50
131 µM (active)
